# System name: potassium channels (Sus scrofa, UniProt F1SR11)
# Test details: Functional potassium channel opening activity in isolated Landrace pig bladder strips (field-stimulated twitch)
# Measurement setup: ED50 for P1075 divided by ED50 for the test agonist, averaged over tissues
# Text: […]
Measured parameter: Landrace Pig Bladder Index

{"columns": ["Molecule", "Landrace Pig Bladder Index"],
 "data": [
  ["O=C1CCCC2=C1C(c1ccc(Cl)c(Cl)c1)C1=C(CCS1(=O)=O)N2 (single isomer, unassigned; (-)) [Example 96]", 0.37],
  ["O=C1CCCC2=C1C(c1ccc3nonc3c1)C1=C(CCS1(=O)=O)N2 (single isomer, unassigned; (-)) [Example 98]", 0.057],
  ["O=C1CCCC2=C1C(c1ccc(Cl)c([N+](=O)[O-])c1)C1=C(CCS1(=O)=O)N2 (stereo not drawn) [Example 34]", 0.32],
  ["Cc1ccc(C2C3=C(CCCC3=O)NC3=C2S(=O)(=O)CC3)cc1C#N (single isomer, unassigned)", 0.026],
  ["O=S1(=O)CCC2=C1C(c1ccc(F)c(Br)c1)C=C(C(F)(F)F)N2 (single isomer, unassigned) [Example 136]", 0.073],
  ["CC1=C(C(=O)O)C(c2ccc(F)c(Br)c2)C2=C(CCCS2(=O)=O)N1 (stereo not drawn)", 0.015]
]}

I: O=C1CCCC2=C1C(c1ccc(F)c(Br)c1)C1=C(CCCS1(=O)=O)N2 (stereo not drawn) [Example 4]
II: O=C1CCC2=C1C(c1ccc(F)c(Br)c1)C1=C(CCCS1(=O)=O)N2 (single isomer, unassigned; (+)) [Example 91]
Given the listed items, does I or II have the lesser reported Landrace Pig Bladder Index? Kindly give the label for the entry you pick. II

I: O=C1CCC2=C1C(c1csc([N+](=O)[O-])c1)C1=C(CCS1(=O)=O)N2 (stereo not drawn)
II: N#Cc1cccc(C2C3=C(CCCC3=O)NC3=C2S(=O)(=O)CCC3)c1 (stereo not drawn)
III: CC1=C(S(C)(=O)=O)C(c2ccc(F)c(Br)c2)C2=C(CCCC2=O)N1 (stereo not drawn)
IV: O=[N+]([O-])c1cc(C2C3=C(CCS3(=O)=O)NC3=C2S(=O)(=O)CC3)ccc1Cl
V: O=C1CCCC2=C1C(c1ccc(F)c(Br)c1)C1=C(CCCS1(=O)=O)N2 (single isomer, unassigned; (-)) [Example 94]
Returns the items ordered by Landrace Pig Bladder Index, from maximum to minimum. When ranking, write the labels in the order the request describes. V, I, III, IV, II
(V: 0.31, I: 0.15, III: 0.038, IV: 0.021, II: 0.0076)

1: Cc1ccc(C2C3=C(CCCC3=O)NC3=C2S(=O)(=O)CC3)cc1[N+](=O)[O-] (single isomer, unassigned)
2: CC1=C(S(C)(=O)=O)C(c2cc(F)c(F)c(F)c2)C2=C(CCCC2=O)N1 (stereo not drawn)
Given the listed items, does 1 or 2 have the lesser reported Landrace Pig Bladder Index? Kindly give the label for the entry you pick. 2
